These data points were gathered from patent US11352350B2.

# target_under_test: IRAK4 (Homo sapiens (Human))
# Sequence (Q9NWZ3 whole entry): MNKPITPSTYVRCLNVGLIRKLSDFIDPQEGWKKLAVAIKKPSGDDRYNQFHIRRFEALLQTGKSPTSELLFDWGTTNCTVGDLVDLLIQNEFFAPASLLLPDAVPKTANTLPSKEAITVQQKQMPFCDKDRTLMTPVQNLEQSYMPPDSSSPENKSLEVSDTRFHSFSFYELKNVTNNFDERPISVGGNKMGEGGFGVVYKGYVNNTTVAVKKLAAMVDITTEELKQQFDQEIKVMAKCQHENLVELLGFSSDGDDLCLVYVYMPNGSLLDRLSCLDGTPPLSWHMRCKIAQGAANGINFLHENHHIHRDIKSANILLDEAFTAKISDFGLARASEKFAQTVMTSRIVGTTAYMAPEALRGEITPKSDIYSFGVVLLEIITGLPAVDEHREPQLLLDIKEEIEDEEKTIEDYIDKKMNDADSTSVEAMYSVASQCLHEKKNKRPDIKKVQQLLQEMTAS
# protocol_details: IRAK4 MSD degradation in OCI-LY10
# Type: cell-based
# experimental_conditions: OCI-LY10, 4 hrs, MSD; read-out: IRAK4 MSD degradation in OCI-LY10 at 4 hrs: Average external-Abs DC50
property: DC50

Solved entries:
O=C1CCC(N2C(=O)c3cccc(NCCCOCC4CCN(C[C@H]5CC[C@H](n6cc7cc(NC(=O)c8cccc(C(F)(F)F)n8)c(C(F)F)cc7n6)CC5)CC4)c3C2=O)C(=O)N1 (some centres unmarked) = 10 to 100 nM
CC(C)(O)c1cc2nn([C@H]3CC[C@H](CN4CCC(COCCCNc5cccc6c5C(=O)N(C5CCC(=O)NC5=O)C6=O)CC4)CC3)cc2cc1NC(=O)c1cccc(C(F)(F)F)n1 (some centres unmarked) = 10 to 100 nM
O=C1CCC(n2c3cccc(CCCOCCOCCNC[C@H]4CC[C@H](n5cc(NC(=O)c6coc(-c7ccnc(NCC8CC8)c7)n6)c(C(F)F)n5)CC4)c3c3cccnc32)C(=O)N1 (some centres unmarked) = 10 to 100 nM
Cn1c(=O)n(C2CCC(=O)NC2=O)c2ccc(CCCCOCCCCNC[C@H]3CC[C@H](n4cc(NC(=O)c5coc(-c6ccnc(NCC(F)(F)F)c6)n5)c(C(N)=O)n4)CC3)cc21 (some centres unmarked) = < 10 nM
O=C1CCC(N2C(=O)c3cccc(NCCCCCCC[C@H]4CC[C@H](n5cc(NC(=O)c6cnn7ccc(N8C[C@H]9C[C@@H]8CO9)nc67)c(C(F)F)n5)CC4)c3C2=O)C(=O)N1 (some centres unmarked) = > 1000 nM

// fetch DC50 given entry Cn1c(=O)n(C2CCC(=O)NC2=O)c2cccc(CN3CCC(CCN4CCC(n5cc(NC(=O)c6cnn7ccc(N8CCOCC8)nc67)c(C(F)F)n5)CC4)CC3)c21 (centres unmarked)
< 10 nM

Query DC50 for CN(CCCOCCCc1cccc2c1n(C)c(=O)n2C1CCC(=O)N(C)C1=O)C[C@H]1CC[C@H](n2cc(NC(=O)c3coc(-c4ccnc(NCC5CC5)c4)n3)c(C(F)F)n2)CC1 (some centres unmarked)
100 to 1000 nM

For the compound Cn1c(=O)n(C2CCC(=O)NC2=O)c2cccc(CCCOC3CCN(C(=O)[C@H]4CC[C@H](n5cc(NC(=O)c6cnn7ccc(N8CCNCC8)nc67)c(C(F)F)n5)CC4)CC3)c21 (some centres unmarked) , report DC50.
< 10 nM

Tell me its DC50 given CN(CCCOCCCc1cccc2c1n(C)c(=O)n2C1CCC(=O)NC1=O)C(=O)[C@H]1CC[C@H](n2cc(NC(=O)c3coc(-c4ccnc(NCC(F)(F)F)c4)n3)c(C(N)=O)n2)CC1 (some centres unmarked) [I-28] as the entry.
< 10 nM

Provide one value: measured DC50 of Cn1c(=O)n(C2CCC(=O)NC2=O)c2cccc(CCCOCCOCCNC[C@H]3CC[C@H](n4cc(NC(=O)c5coc(-c6ccnc(NCC(F)(F)F)c6)n5)c(C(N)=O)n4)CC3)c21 (some centres unmarked)
< 10 nM

Input CC[C@@H]1CC(=O)N[C@@H]1COc1ncc(C#C[C@H]2CC[C@@H](CN3CCC(OCCCc4cccc5c4n(C)c(=O)n5C4CCC(=O)NC4=O)CC3)CC2)c2cc(C(N)=O)c(OC)cc12 (some centres unmarked) , output reported DC50.
100 to 1000 nM
